# Tested on: IL-2-FL/Gaussia Luciferase
# procedure-summary: Dox Induced IL2-FL-Gluc Assay
# Type: cell-based
# test-parameters: 24 hr doxycycline induction, 293FRT/TO cells, Gaussia luciferase signal; read-out: 24 hr Dox Inducible IL2FLGIuc 293FRT/TO: Mean IC50
# Method: Transfected cells were selected for resistance to the selectable markers Hygromycin and Blasticidin to create a stable cell line that contained the IL-2-FL/Gaussia Luciferase cDNA insert whose expression was regulated under the T-RExTM system. The day before assay, cells were trypsinized and plated in 384-well tissue culture plates. The next day, compound dilutions in DMSO/media containing doxycycline were added to the wells and incubated at 37° C., 5% CO2. […]
reported-metric: IC50 (nM)
Number in nM, nothing else.

COc1ccccc1C#Cc1csc(NC(=O)c2cccn2Cc2ccncc2)n1 [Compound A141]
1580
O=C(Nc1nc(CCc2ccc(Cl)cc2)cs1)c1cccn1Cc1ccncc1 [Compound A180]
281

Request the reported IC50 associated with CCOC(C)(C)c1csc(NC(=O)c2cccn2Cc2ccncc2)n1 [Compound A27]
320

Request the reported IC50 associated with CC(C)(COc1ccccn1)c1csc(NC(=O)c2cccn2Cc2ccncc2)n1 [Compound A260]
950

Request the reported IC50 associated with O=C(Nc1nc(C2CCN(c3ccccc3)CC2)cs1)c1cccn1CCCc1ccncc1 [Compound A285]
2860
